Target: MMP-8 (Homo sapiens, UniProt P22894)
Construct: catalytic domain (^99Phe˜^262Gly) was amplified with PCR; His-tag; enterokinase digestion-site; made in house; host or cells: Escherichia coli
Sequence (P22894 99-262): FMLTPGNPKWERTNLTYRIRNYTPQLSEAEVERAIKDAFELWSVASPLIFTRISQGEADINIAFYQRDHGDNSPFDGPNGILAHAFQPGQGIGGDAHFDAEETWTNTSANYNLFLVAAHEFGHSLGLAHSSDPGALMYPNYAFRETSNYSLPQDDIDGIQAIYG
Assay: Assay for inhibitory activities on MMPs (fluorogenic peptide substrate), MMP-8
Format: biochemical
Conditions: catalytic domain 99Phe-262Gly; substrate MOCAc-Pro-Leu-Gly-Leu-A2Pr(DNP)-Ala-Arg-NH2
Description: In regard to MMP-8, catalytic domain (^99Phe˜^262Gly) was amplified with PCR using commercial available Human Bone Marrow cDNA. […] The enzymatic activity on MMPs was analyzed by the method described in “C. […]
property measured: IC50 (nM)

>>> measured_value("CC(C)[C@H](NS(=O)(=O)c1ccc(-c2ncc(-c3ccc(F)cc3)o2)cc1)C(=O)O [Compound A-26]")
569
>>> measured_value("CSCC[C@@H](NS(=O)(=O)c1ccc(-c2ncc(-c3ccccc3)s2)cc1)C(=O)O [Compound B-45]")
29
>>> measured_value("O=C(O)[C@@H](Cc1ccccc1)NS(=O)(=O)c1ccc(-c2ncc(-c3ccc(F)cc3)s2)cc1 [Compound B-17]")
22.4

I = CC(C)[C@H](NS(=O)(=O)c1ccc(-c2ncc(-c3ccccc3)s2)cc1)C(=O)O [Compound B-3]
II = CC(C)C[C@@H](NS(=O)(=O)c1ccc(-c2ncc(-c3ccc(Cl)cc3)o2)cc1)C(=O)O [Compound A-30]
-- ask In the pair I and II , the larger recorded IC50 belongs to which? Your answer should be the label of the entry you select.
-- reply II

A = CC(C)C[C@@H](NS(=O)(=O)c1ccc(-c2ncc(-c3ccc(Cl)cc3)s2)cc1)C(=O)O [Compound B-31]
B = COc1ccc(-c2cnc(-c3ccc(S(=O)(=O)N[C@H](C)C(=O)O)cc3)o2)cc1 [Compound A-8]
-- ask Quick check, higher IC50 between A and B ? API: response body contains the label of the selected item.
-- reply A

I = O=C(O)[C@@H](Cc1ccccc1)NS(=O)(=O)c1ccc(-c2ncc(-c3ccccc3)s2)cc1 [Compound B-11]
II = O=C(O)[C@@H](Cc1ccccc1)NS(=O)(=O)c1ccc(-c2ncc(-c3ccc4ccccc4c3)o2)cc1 [Compound A-1]
III = CC(C)[C@@H](NS(=O)(=O)c1ccc(-c2ncc(-c3ccc(F)cc3)s2)cc1)C(=O)O [Compound B-8]
IV = O=C(O)[C@@H](Cc1c[nH]c2ccccc12)NS(=O)(=O)c1ccc(-c2ncc(-c3ccc(Cl)cc3)s2)cc1 [Compound B-51]
-- ask Sort entries by IC50 from minimum to maximum value. List each label, following the requested order.
-- reply III, I, IV, II
(III: 10.5 nM, I: 26.1 nM, IV: 66 nM, II: 230 nM)

1 = CC(C)[C@H](NS(=O)(=O)c1ccc(-c2ncc(-c3ccc(Cl)cc3)s2)cc1)C(=O)O [Compound B-5]
2 = CC(C)[C@@H](NS(=O)(=O)c1ccc(-c2ncc(-c3ccccc3)s2)cc1)C(=O)O [Compound B-2]
3 = O=C(O)[C@@H](Cc1ccccc1)NS(=O)(=O)c1ccc(-c2ncc(-c3ccc(F)cc3)o2)cc1 [Compound A-19]
-- ask Hi! Can you put these in order of IC50, lowest number first? API: response body holds the labels in the requested order.
-- reply 2, 1, 3

P = CC(C)[C@H](NS(=O)(=O)c1ccc(-c2ncc(-c3ccc(F)cc3)s2)cc1)C(=O)O [Compound B-9]
Q = CC(C)[C@@H](NS(=O)(=O)c1ccc(-c2ncc(-c3ccc4ccccc4c3)o2)cc1)C(=O)O [Compound A-50]
-- ask // compare measured IC50 between P and Q ; output the lower one Let me know the label of the one you choose.
-- reply P
(P: 12.5 nM, Q: 146 nM)

The measured values listed here are drawn from patent US6949566B2.
